Target: melanocortin MC-4 receptor (Homo sapiens)
Construct: purchased Receptor Biology Inc
Sequence (P32245 whole entry): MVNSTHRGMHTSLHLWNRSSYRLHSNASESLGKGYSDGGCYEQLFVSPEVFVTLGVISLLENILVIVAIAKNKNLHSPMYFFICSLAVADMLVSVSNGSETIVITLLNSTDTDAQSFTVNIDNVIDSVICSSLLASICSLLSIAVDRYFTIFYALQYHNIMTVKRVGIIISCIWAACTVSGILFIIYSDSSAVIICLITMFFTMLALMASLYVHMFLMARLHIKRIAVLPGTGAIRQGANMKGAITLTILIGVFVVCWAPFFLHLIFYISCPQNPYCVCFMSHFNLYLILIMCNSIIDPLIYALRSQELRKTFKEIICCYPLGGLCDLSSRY
Experiment: Melanocortin MC-4 Receptor Binding Assay (SPA)
Details: 125I-NDP-melanocyte stimulating hormone
reportedProperty: IC50
Please make sure the unit comes right after the number.

Problem: Suppose we examine the molecule COc1ccccc1-[n+]1sc(Nc2ccc(Cl)cc2)nc1-c1ccc(C)cc1 ; what IC50 value has been reported?
Result: 566 nM
